Source: PubChem BioAssay (NCI)

System: SF-539 CNS
Experiment: NCI tumour cell line growth inhibition, 48 h
Outcome label depends on TGI relative to 30 µM: at/above gives Criterion met, below gives Criterion not met.

[[record]]
compound = "COc1ccc(NCC#N)cc1"
cat = "Criterion met"

[[record]]
compound = "CCC#CCCCCCCCCC(F)C(=O)O (centres undefined)"
cat = "Criterion met"

[[record]]
compound = "O=C(c1ccco1)N(Cc1cccnc1)C(=S)N(Cc1cccnc1)C(=O)c1ccco1"
cat = "Criterion not met"

[[record]]
compound = "O=C1C=CC(=O)N1n1c(Cc2ccccc2)n[nH]c1=O"
cat = "Criterion met"

[[record]]
compound = "C=C1C(=O)O[C@H]2[C@H]1CC/C(COC(=O)NCc1[nH]nc3ccccc13)=C\\CC[C@@]1(C)O[C@@H]21"
cat = "Criterion not met"

[[record]]
compound = "C=CCCC(=O)N1CCC(C(=O)OCC)C1=O (centres undefined)"
cat = "Criterion met"

[[record]]
compound = "CN(C)c1ccc(C=NC23CC4CC(CC(C4)C2)C3)cc1"
cat = "Criterion met"

[[record]]
compound = "Clc1cccc(Cl)c1C(Nc1nncs1)Nc1nncs1"
cat = "Criterion met"

[[record]]
compound = "COC(=O)[C@](NC(=O)OCc1ccccc1)([C@@H](C)Sc1ccc(C)cc1)C(F)(F)F"
cat = "Criterion met"

[[record]]
compound = "c1cc(N2CCN(c3ccc(C4=NCCN4)cc3)CC2)ccc1C1=NCCN1"
cat = "Criterion met"

[[record]]
compound = "CCC(C)NC1=C(NC(C)=O)C(=O)c2ccccc2C1=O (centres undefined)"
cat = "Criterion met"

[[record]]
compound = "CCCCN(CCCC)CC(O)c1ccc(OCc2ccccc2)c2ccccc12 (centres undefined)"
cat = "Criterion not met"

[[record]]
compound = "N#CCCN(CCNc1ccccc1)C(=O)Nc1ccc(NC(=O)N(CCC#N)CCNc2ccccc2)cc1"
cat = "Criterion met"

[[record]]
compound = "CCOP(=O)(/C=C/n1ccc(=O)[nH]c1=O)OCC"
cat = "Criterion met"

[[record]]
compound = "COC(=O)C12C3C4C1C1C2C3C41C(=O)O (centres undefined)"
cat = "Criterion met"

[[record]]
compound = "O=[N+]([O-])c1cccc2nc3ccccc3c(NCCO)c12"
cat = "Criterion not met"

[[record]]
compound = "N#Cc1c(-c2ccccc2)n([O-])c2ccccc2[n+]1=O"
cat = "Criterion met"

[[record]]
compound = "CC(=O)OCC1OC(NC(=S)CCSc2nc3ccccc3c(=O)n2-c2ccccc2)C(OC(C)=O)C(OC(C)=O)C1OC(C)=O (centres undefined)"
cat = "Criterion met"

[[record]]
compound = "CCC(/C=C(C)/C=C/C(=O)c1c(O)c(-c2ccc(O)cc2)c[nH]c1=O)CO (centres undefined)"
cat = "Criterion not met"

[[record]]
compound = "CN1CCN(Cc2ccc(NC(=O)c3nc4ccc5[nH]ncc5c4c4c3CCCC4)cc2C(F)(F)F)CC1"
cat = "Criterion not met"

[[record]]
compound = "OCCCNCC(O)c1ccc(OCc2ccccc2)c(OCc2ccccc2)c1 (centres undefined)"
cat = "Criterion not met"

[[record]]
compound = "CN1C(c2ccccc2)CC(=NOCc2ccccc2)CC1c1ccccc1 (centres undefined)"
cat = "Criterion met"

[[record]]
compound = "C[Si]1(C)C(c2ccccc2)=CC2C(c3ccccc3)(c3ccccc3)OC21c1ccccc1 (centres undefined)"
cat = "Criterion met"

[[record]]
compound = "Cc1nn(-c2ccccc2)c(-n2ccnc2)c1/C=N/Nc1nc(-c2ccc(Cl)c(Cl)c2)cs1"
cat = "Criterion not met"

[[record]]
compound = "C/C=C(/C(=C/C)c1ccc(O)cc1)c1ccc(O)cc1"
cat = "Criterion not met"

[[record]]
compound = "COc1cc(OC)c(C#N)c(OC)c1C"
cat = "Criterion met"

[[record]]
compound = "Cc1ccc(NC(=S)C#N)cc1Cl"
cat = "Criterion met"

[[record]]
compound = "CCCn1c2c(c3ccccc3c1=O)C(=O)c1cc3c(cc1-2)OCO3"
cat = "Criterion met"

